Test system: ZR-75-1
PROTOCOL_TEXT: relative IC50 (midpoint of fitted logistic curve, plateau may be below 50% inhibition; CellTiter-Glo viability); higher = less potent
CONDITIONS: 4-OH-tamoxifen in medium 0 µM; 72 h
Reported relative IC50 values are given for each entry in this list.

>  <COMPOUND>
Cn1cncc1[C@@](N)(c1ccc(Cl)cc1)c1ccc2c(c1)c(-c1cccc(Cl)c1)cc(=O)n2C [Tipifarnib (Zarnestra)]

>  <relative IC50>
606 nM

$$$$
>  <COMPOUND>
Clc1ccc(C(c2ccccc2Cl)C(Cl)Cl)cc1 (stereo not drawn) [Mitotane]

>  <relative IC50>
> 10000 nM

$$$$
>  <COMPOUND>
O=P1(NCCCl)OCCCN1CCCl (stereo not drawn) [Ifosfamide]

>  <relative IC50>
> 10000 nM

$$$$
>  <COMPOUND>
O=C1CN2Cc3c(ccc(Cl)c3Cl)N=C2N1 [Anagrelide]

>  <relative IC50>
> 10000 nM

$$$$
>  <COMPOUND>
COc1cccc2cc(-c3nc([C@H]4CC[C@H](C(=O)O)CC4)n4ncnc(N)c34)[nH]c12 [OSI-027]

>  <relative IC50>
263 nM

$$$$
>  <COMPOUND>
Cn1c(=O)n(-c2ccc(C(C)(C)C#N)cc2)c2c3cc(-c4cnc5ccccc5c4)ccc3ncc21 [Dactolisib (NVP-BEZ235)]

>  <relative IC50>
9.3 nM

$$$$
>  <COMPOUND>
Cc1cc2c(F)c(Oc3ncnn4cc(OC[C@@H](C)O)c(C)c34)ccc2[nH]1 [Brivanib]

>  <relative IC50>
> 1000 nM

$$$$
>  <COMPOUND>
C=CC(=O)N1CCC[C@@H](n2nc(-c3ccc(Oc4ccccc4)cc3)c3c(N)ncnc32)C1

>  <relative IC50>
> 1000 nM

$$$$
>  <COMPOUND>
CCN(CC)CCNC(=O)c1c(C)[nH]c(/C=C2\C(=O)Nc3ccc(F)cc32)c1C

>  <relative IC50>
> 1000 nM

$$$$
>  <COMPOUND>
COCC[n+]1c2c(n(Cc3cnccn3)c1C)C(=O)c1ccccc1C2=O [YM155]

>  <relative IC50>
36.5 nM

$$$$
>  <COMPOUND>
CC(=O)Nc1ccc(C(=O)Nc2ccccc2N)cc1 [Tacedinaline (CI-994)]

>  <relative IC50>
> 1000 nM

$$$$
>  <COMPOUND>
Cc1cc(C(C)Nc2ccccc2)c2nc(N3CCOCC3)cc(=O)n2c1 (stereo not drawn) [TGX-221]

>  <relative IC50>
74.3 nM

$$$$
>  <COMPOUND>
COc1cc([C@@H]2c3cc4c(cc3[C@@H](O[C@@H]3O[C@@H]5CO[C@@H](C)O[C@H]5[C@H](O)[C@H]3O)[C@H]3COC(=O)[C@H]23)OCO4)cc(OC)c1O [Etoposide]

>  <relative IC50>
612 nM

$$$$
>  <COMPOUND>
COc1cc(Nc2ncc3c(n2)-c2ccc(Cl)cc2C(c2c(F)cccc2OC)=NC3)ccc1C(=O)O [Alisertib (MLN8237)]

>  <relative IC50>
> 10000 nM

$$$$
>  <COMPOUND>
COc1ccc(-c2ccc3c(N4CCOC[C@@H]4C)nc(N4CCOC[C@@H]4C)nc3n2)cc1CO [AZD8055]

>  <relative IC50>
31.3 nM

$$$$
>  <COMPOUND>
N.N.[Cl][Pt][Cl] [Cisplatin]

>  <relative IC50>
> 10000 nM

$$$$
>  <COMPOUND>
O=P(O)(NCCCl)NCCCl [Ifosfamide mustard]

>  <relative IC50>
> 10000 nM

$$$$
>  <COMPOUND>
CC1(C)CNc2cc(NC(=O)c3cccnc3NCc3ccncc3)ccc21 [Motesanib (AMG-706)]

>  <relative IC50>
> 10000 nM

$$$$
